assay-info: logP determination by HPLC (EEC directive 79/831 Annex V. A8)
Assay type: physicochemical
experimental-parameters: pH = 2; HPLC gradient method, acetonitrile/0.1% aqueous phosphoric acid
assay-endpoint: chromatographic logP
Answer as a number with no unit attached.

Prompt: What value of chromatographic logP has been recorded for this entry: CCCOCN1COCN(Cc2cnc(Cl)s2)C1=N[N+](=O)[O-]
Completion: 1.7
